test system: Hepatotoxicity
PROPERTY MEASURED: HepSE_Combined Scores
// return just the number, without any unit appended

[[record]]
compound = "CN(C/C=C/C#CC(C)(C)C)Cc1cccc2ccccc12"
result = 3


Let us move to another entry and its HepSE_Combined Scores.
Bench note, Hepatotoxicity: entry CCC1(C)CC(=O)NC1=O (stereo not given) [ETHOSUXIMIDE] , its HepSE_Combined Scores = 0

###

Here's what we have: HepSE_bilirubinemia numbers for Hepatotoxicity.
// return just the number, without any unit appended

Check out these entries, answers already filled in.
[[record]]
compound = "COc1cc2c(cc1OC)C(=O)C(CC1CCN(Cc3ccccc3)CC1)C2 (configuration not stated) [DONEPEZIL]"
tested_on = "Hepatotoxicity"
result = 1

[[record]]
compound = "CC(=O)N(CC(O)CN(C(C)=O)c1c(I)c(C(=O)NCC(O)CO)c(I)c(C(=O)NCC(O)CO)c1I)c1c(I)c(C(=O)NCC(O)CO)c(I)c(C(=O)NCC(O)CO)c1I (configuration not stated) [IODIXANOL]"
tested_on = "Hepatotoxicity"
result = 0

[[record]]
compound = "Cc1cc(C2CCCCC2)n(O)c(=O)c1 [CICLOPIROX]"
tested_on = "Hepatotoxicity"
result = 0

[[record]]
compound = "CCCCCOC(=O)Nc1nc(=O)n([C@@H]2O[C@H](C)[C@@H](O)[C@H]2O)cc1F [CAPECITABINE]"
tested_on = "Hepatotoxicity"
result = 1

[[record]]
compound = "Cc1ncc2n1-c1ccc(Cl)cc1C(c1ccccc1F)=NC2 [MIDAZOLAM]"
tested_on = "Hepatotoxicity"
result = 0

[[record]]
compound = "CS(=O)(=O)OCCCCOS(C)(=O)=O [BUSULFAN]"
tested_on = "Hepatotoxicity"
result = 1

[[record]]
compound = "CC(C)c1nc(N(C)S(C)(=O)=O)nc(-c2ccc(F)cc2)c1/C=C/[C@@H](O)C[C@@H](O)CC(=O)O [ROSUVASTATIN]"
tested_on = "Hepatotoxicity"
result = 0

[[record]]
compound = "OC[C@H]1O[C@@H](O)[C@@H](F)[C@@H](O)[C@@H]1O"
tested_on = "Hepatotoxicity"
result = 0


Bench note, Hepatotoxicity: entry C[C@]12CC[C@@H]3c4ccc(O)cc4CC[C@H]3[C@@H]1CC[C@@H]2O [ESTRADIOL] , its HepSE_bilirubinemia = 0

Bench note, Hepatotoxicity: entry OC(CNCC(O)C1CCc2cc(F)ccc2O1)C1CCc2cc(F)ccc2O1 (configuration not stated) [NEBIVOLOL] , its HepSE_bilirubinemia = 0

###

Here's what we have: HepSE_jaundice numbers for Hepatotoxicity.
// return just the number, without any unit appended

[[record]]
compound = "Nc1ncnc2c1ncn2[C@@H]1O[C@H](COP(=O)(S)S)[C@@H](O)[C@H]1O"
tested_on = "Hepatotoxicity"
result = 1

[[record]]
compound = "CC(C)CN(C[C@@H](O)[C@H](Cc1ccccc1)NC(=O)O[C@H]1CCOC1)S(=O)(=O)c1ccc(N)cc1"
tested_on = "Hepatotoxicity"
result = 0

[[record]]
compound = "O=C1CN=C(c2ccccc2)c2cc([N+](=O)[O-])ccc2N1 [NITRAZEPAM]"
tested_on = "Hepatotoxicity"
result = 0

[[record]]
compound = "CCC[C@@H]1C[C@@H](C(=O)N[C@@H]([C@H]2O[C@H](SC)[C@H](O)[C@@H](O)[C@H]2O)[C@@H](C)O)N(C)C1 [LINCOMYCIN]"
tested_on = "Hepatotoxicity"
result = 1

[[record]]
compound = "CO[C@@]1(NC(=O)Cc2cccs2)C(=O)N2C(C(=O)O)=C(COC(N)=O)CS[C@@H]21 [CEFOXITIN]"
tested_on = "Hepatotoxicity"
result = 1


Bench note, Hepatotoxicity: entry CCN(CCO)CCCC(C)Nc1ccnc2cc(Cl)ccc12 (stereo unspecified) [HYDROXYCHLOROQUINE] , its HepSE_jaundice = 0

Bench note, Hepatotoxicity: entry C[C@]12CC[C@H]3[C@@H](CCC4=CC(=O)CC[C@@]43C)[C@@H]1CC[C@@H]2O [TESTOSTERONE] , its HepSE_jaundice = 1

Bench note, Hepatotoxicity: entry CN1CC[C@]23c4c5ccc(O)c4O[C@H]2C(=O)CC[C@H]3[C@H]1C5 [HYDROMORPHONE] , its HepSE_jaundice = 1

Bench note, Hepatotoxicity: entry CSCC[C@H](NC(=O)[C@H](Cc1ccc(OS(=O)(=O)O)cc1)NC(=O)[C@@H](N)CC(=O)O)C(=O)NCC(=O)N[C@@H](Cc1c[nH]c2ccccc12)C(=O)N[C@@H](CCSC)C(=O)N[C@@H](CC(=O)O)C(=O)N[C@@H](Cc1ccccc1)C(N)=O [SINCALIDE] , its HepSE_jaundice = 0

Bench note, Hepatotoxicity: entry CN(C/C=C/C#CC(C)(C)C)Cc1cccc2ccccc12 [TERBINAFINE] , its HepSE_jaundice = 1

Bench note, Hepatotoxicity: entry CC(C)OC(=O)CCC/C=C\C[C@@H]1[C@@H](CC[C@@H](O)CCc2ccccc2)[C@H](O)C[C@@H]1O [LATANOPROST] , its HepSE_jaundice = 0

Bench note, Hepatotoxicity: entry CC1(C)S[C@@H]2[C@H](NC(=O)C(C(=O)Oc3ccc4c(c3)CCC4)c3ccccc3)C(=O)N2[C@H]1C(=O)[O-].[Na+] (stereo partly specified) [CARBENICILLIN INDANYL SODIUM] , its HepSE_jaundice = 0

Bench note, Hepatotoxicity: entry [Cl-].[Na+] [SODIUM CHLORIDE] , its HepSE_jaundice = 0

Bench note, Hepatotoxicity: entry CN[C@@H]1CCc2[nH]c3ccc(C(N)=O)cc3c2C1 [FROVATRIPTAN] , its HepSE_jaundice = 0

Bench note, Hepatotoxicity: entry C=CC[N+]1([C@H]2C[C@H]3[C@@H]4CC[C@H]5C[C@H](O)[C@@H](N6CCOCC6)C[C@]5(C)[C@H]4CC[C@]3(C)[C@H]2OC(C)=O)CCCC1 [ROCURONIUM] , its HepSE_jaundice = 0

Bench note, Hepatotoxicity: entry CC1(C)O[C@@H]2C[C@H]3[C@@H]4CCC5=CC(=O)C=C[C@]5(C)[C@H]4[C@@H](O)C[C@]3(C)[C@]2(C(=O)CO)O1 [DESONIDE] , its HepSE_jaundice = 0

Numbers sourced from ChEMBL document CHEMBL1909294.
